# Organism: Oryctolagus cuniculus
# testName: Antiviral activity in primary rabbit kidney cell cultures against Herpes simplex virus type 2 Strain G
# Type: functional
Task for the reader: assign each of the following compounds its reported MIC.
Write the value in µg/mL as a bare number.

Qu. Query (compound): Nc1ncnc2c1ncn2C1O[C@H](CO)[C@@H](OP(=O)([O-])OC[C@H]2OC(n3cnc4c(N)ncnc43)[C@H](O)[C@H]2O)[C@@H]1O.[Na+] (stereo partly specified) ; field requested: MIC
Ans. 7

Qu. // next record `Nc1ncnc2c1ncn2[C@@H]1O[C@H](COP(=O)([O-])OC[C@H]2O[C@H](n3cnc4c(N)ncnc43)[C@@H](O)[C@@H]2O)[C@@H](O)[C@@H]1O.[Na+]`
Ans. 70

Qu. // next record `Nc1ncnc2c1ncn2[C@@H]1O[C@H](CO)[C@@H](O)[C@@H]1O`
Ans. 7

Qu. // next record Nc1ncnc2c1ncn2C1O[C@H](CO)C(OP(=O)([O-])OC[C@H]2OC(n3cnc4c(N)ncnc43)[C@@H](O)[C@@H]2O)[C@@H]1O.[Na+] (stereo partly specified)
Ans. 7

Qu. // next record Nc1ncnc2c1ncn2[C@@H]1O[C@H](COP(=O)(O)O)[C@@H](O)[C@@H]1O [VIDARABINE PHOSPHATE]
Ans. 7

====

# Species on record: Oryctolagus cuniculus
# testName: Minimum cytotoxic concentration against herpes simplex virus in primary rabbit kidney cell cultures
# Type: functional
Task for the reader: assign each of the following molecules its reported MCC.

Qu. Query (molecule): Nc1ncnc2c1ncn2C1O[C@H](CO)[C@@H](OP(=O)([O-])OC[C@H]2OC(n3cnc4c(N)ncnc43)[C@H](O)[C@H]2O)[C@@H]1O.[Na+] (stereo partly specified) ; field requested: MCC
Ans. 100 µg/mL

Qu. // next record Nc1ncnc2c1ncn2C1O[C@H](CO)C(OP(=O)([O-])OC[C@H]2OC(n3cnc4c(N)ncnc43)[C@@H](O)[C@@H]2O)[C@@H]1O.[Na+] (stereo partly specified)
Ans. > 200 µg/mL

Qu. // next record `Nc1ncnc2c1ncn2[C@@H]1O[C@H](CO)[C@@H](OP(=O)([O-])O[C@H]2[C@H](O)[C@H](n3cnc4c(N)ncnc43)O[C@@H]2CO)[C@@H]1O.[Na+]`
Ans. > 400 µg/mL

Qu. // next record `Nc1ncnc2c1ncn2[C@@H]1O[C@H](CO)[C@@H](O)[C@@H]1O`
Ans. > 100 µg/mL

Qu. // next record `Nc1ncnc2c1ncn2[C@@H]1O[C@H](COP(=O)([O-])OC[C@H]2O[C@H](n3cnc4c(N)ncnc43)[C@@H](O)[C@@H]2O)[C@@H](O)[C@@H]1O.[Na+]`
Ans. > 400 µg/mL

Qu. // next record Nc1ncnc2c1ncn2[C@@H]1O[C@H](COP(=O)(O)O)[C@@H](O)[C@@H]1O [VIDARABINE PHOSPHATE]
Ans. > 100 µg/mL

====

# Tested on: HeLa
# testName: Minimum cytotoxic concentration against vaccinia virus in aneuploid (Hela) human cells
# Assay type: functional
Task for the reader: assign each of the following compounds its reported MCC.

Qu. Query (compound): `Nc1ncnc2c1ncn2[C@@H]1O[C@H](COP(=O)([O-])OC[C@H]2O[C@H](n3cnc4c(N)ncnc43)[C@@H](O)[C@@H]2O)[C@@H](O)[C@@H]1O.[Na+]` ; field requested: MCC
Ans. > 400 µg/mL

Qu. // next record Nc1ncnc2c1ncn2[C@@H]1O[C@H](COP(=O)(O)O)[C@@H](O)[C@@H]1O [VIDARABINE PHOSPHATE]
Ans. ≥ 400 µg/mL

Qu. // next record `Nc1ncnc2c1ncn2[C@@H]1O[C@H](CO)[C@@H](OP(=O)([O-])O[C@H]2[C@H](O)[C@H](n3cnc4c(N)ncnc43)O[C@@H]2CO)[C@@H]1O.[Na+]`
Ans. ≥ 400 µg/mL

Qu. // next record Nc1ncnc2c1ncn2C1O[C@H](CO)C(OP(=O)([O-])OC[C@H]2OC(n3cnc4c(N)ncnc43)[C@@H](O)[C@@H]2O)[C@@H]1O.[Na+] (stereo partly specified)
Ans. ≥ 200 µg/mL

Qu. // next record Nc1ncnc2c1ncn2C1O[C@H](CO)[C@@H](OP(=O)([O-])OC[C@H]2OC(n3cnc4c(N)ncnc43)[C@H](O)[C@H]2O)[C@@H]1O.[Na+] (stereo partly specified)
Ans. 100 µg/mL

Qu. // next record `Nc1ncnc2c1ncn2[C@@H]1O[C@H](CO)[C@@H](O)[C@@H]1O`
Ans. > 200 µg/mL

Cited source for all entries: ChEMBL document CHEMBL1124280
